Tested on: MS2 coat protein
Protocol description: apparent Kd, MS2 coat protein; higher = weaker binding; RNA-MaP array; FMN 200 µM where present
Protocol conditions: ligand present: flavin mononucleotide; designed as: OFF switch for flavin mononucleotide
Threshold rule: apparent Kd greater than or equal to 30 nM is yes; below that, no.

These recorded examples may help you get a feel for the data.
## Task // inclusive: apparent Kd at least 30 nM? input: UGAUCGAAAGAUCAUAGAUUCUGCUAGGAUAUGCAGAAGUUGCGAUUUACAUGAGGAUCACCCAUGUAGAAGGAGUAGAGUCUA
## Result no

## Task In plain terms: is recorded apparent Kd at least 30 nM for UAUGUUUUAGGAUAUUGUACUGCUGACAUGAGGAUCACCCAUGUAUGCUAACUCGGUUGUCGAGAAGGAGAAUAUG ?
## Result yes

## Task Please check the record GACUUGCUGUCAGGAUAUAACCGUCCUACACGGUUAGAAGGGACAUGAGGAUCACCCAUGUGCCAGAGCGCACGAAUUUUUUAC and state if its apparent Kd is at or above 30 nM.
## Result yes

## Task Threshold query (apparent Kd >= 30 nM) on UGUUAAAUUGAUCCUGCAAGUACAUGAGGAUCACCCAUGUGCUAGGAUAUCGCGCAGCUAAAGACCGAGAAGGAGCACAAUGUA
## Result yes

## Task Decide: is the reported value of apparent Kd for UAUAUAUAGUAAGGAUAUAUAUUUAUUUUAUAAAUAGAAGGUACAGACAUGAGGAUCACCCAUGUUAUAAUAUGGACAUGUGGA equal to or greater than 30 nM?
## Result yes

## Task Assess whether reported apparent Kd for UGGCUACAUGAGGAUCACCCAUGUCAGGAUAUGCCGUCGGCUUGCCUUCGUCGUUCGGGUAGAAGGGACUGCGG sits at 30 nM or higher.
## Result no

## Task Evaluate UAUUAGUGAGGAUAUGAGUCGUAGAACAAUAGUACUACGUCUCAGAAGGUACAUGAGGAUCACCCAUGUUUCUC : apparent Kd at minimum 30 nM?
## Result no

## Task Does apparent Kd meet or surpass 30 nM for UUAAAUCAUGUAGGAUAUGCAUGGCGAAGCUACGCAGAAGGACAUGAGGAUCACCCAUGUUAUAGCGUCUGGAAACAGAUGCAA ?
## Result yes

More entries:
## Task Answer whether apparent Kd of UUCCUACAUGAGGAUCACCCAUGUCAGGAUAUCUCCUCACCGCGAAUGGGCAGUGAAUAGAGAAGGGACAGGAA is greater than or equal to 30 nM.
## Result no

## Task Textbook exercise: given the entry GCCUUACAUGAGGAUCACCCAUGUGAGGAUAUUAACAGCUGCACUACUGAAGCGGCUGUAAGAAGGCACGUGGU , state whether its apparent Kd is greater than or equal to 30 nM.
## Result yes

## Task Textbook exercise: given the entry AGUAACAGAGGAUAUACUGUUUUAUGUAUUUAUUAUUUUAAACAUGAGGAUCACCCAUGUAGAAGGCUGAAUGA , state whether its apparent Kd is greater than or equal to 30 nM.
## Result no

* * *

Test system: MS2 coat protein
Protocol description: apparent Kd, MS2 coat protein; higher = weaker binding; RNA-MaP array
Protocol conditions: ligand present: flavin mononucleotide; designed as: OFF switch for flavin mononucleotide
Property name: apparent Kd (nM)
Field: numeric (nM). Do not append units.

Please review the entries below; each comes with its answer.
## Task Fill in the recorded apparent Kd for this sequence, with MS2 coat protein as test system: UAUCACUGGCAGAAGGUUCUCGGAAGCGAUGGUACUCUAUACAUGAGGAUCACCCAUGUCUACGGAAAGGAUAUGCCAUUGCGA
## Result 176

## Task Recorded apparent Kd for UCGGACGGAGGAUAUACUAUGACUCCCACGGCAUGUUACGCACAUGAGGAUCACCCAUGUAGAAGGCCGCCUAA with MS2 coat protein, please?
## Result 7.41

## Task Could you share what apparent Kd was measured for CAGAACAACGAAGGAUAUGCGAAACAUGAGGAUCACCCAUGUGUGGUUUUACUCAAACACCUGUCGCAGAAGGUCGCGUAACGA , tested on MS2 coat protein?
## Result 31.1

## Task So what apparent Kd did GUCGAGAUUCAAGGAUAUCCGAUCUUACGCAUAGUAGAAUGACAUGAGGAUCACCCAUGUGUCCAGGAGAAGGUGAAUGGAUUU get with MS2 coat protein?
## Result 21.6

## Task Give the reported apparent Kd for GUUCGUAGGUAGGAUAUAAGAGCUGUACUCUUCUUAGAAGGACCCACAUGAGGAUCACCCAUGUUUUGGGCGUG (system: MS2 coat protein).
## Result 35.5

Shift focus to the following entry.
## Task apparent Kd of AAGUGCAGCCGAGGAUAUAUCCACACGCCAGUACCCUCUCACAUGAGGAUCACCCAUGUUACCGGAUAGAAGGCGGUUUAUUAU on MS2 coat protein?
## Result 58.5

* * *

Overview of reported apparent Kd across a group of sequences:
System: MS2 coat protein
Protocol description: apparent Kd, MS2 coat protein; higher = weaker binding; RNA-MaP array; theophylline 2 mM where present
Protocol conditions: designed as: OFF switch for theophylline; no ligand
Just the number in nM, nothing appended.

## Task Looking for the measured apparent Kd of UGACAUUGCUCAGAUACCAGACAUGAGGAUCACCCAUGUACCAAGAGUACAAAUUAAAAUGUCCCUUGGCAGCUGAGCAAUGUCU , can you help?
## Result 19.6

## Task What does the data say about its apparent Kd? Entry: UACAUGAGGAUCACCCAUGUAUGAAUAGAUACCAGAUAAAAUAAGGUCCCUUGGCAGCUAGUGAAUAAAGGGUGGGUAAAAUAAU
## Result 9.22

## Task Form field: reported apparent Kd of AUAACAUGAGGAUCACCCAUGUAAGCAGAUACCAGCUAGGAAACUAGCCCUUGGCAGCUGCAUAGUGAUCCAUAUAUCUGCUAAU
## Result 53.6

## Task # lookup: apparent Kd of AGACAUGAGGAUCACCCAUGUAGUAUGGAUACCAGAUCCAGAUUUAUCCCUUGGCAGCUGUGGUACAGCGAUGGAUCGCUCCUAG
## Result 23.4

## Task For the sequence UUUUUUAUCAUGGCGUAUCGGAAAACCGAUACCAGUACAGAAAUGUACCCUUGGCAGCGGCGUUUUACAUGAGGAUCACCCAUGU , what apparent Kd is on record?
## Result 14.5

## Task Quick one: apparent Kd of UCGCUCGCAGAAAUGCGAGCGAGUUGCGAUACCAGCCCGGAAACGGGCCCUUGGCAGCGCACAUGAGGAUCACCCAUGUCAUGUU ?
## Result 17.4

## Task Look up apparent Kd: AUGUCAUUGGUGCAGCUGUUAAAUGGCGAUACCAGCGUGGAAACACGCCCUUGGCAGCGCCAAAACAUGAGGAUCACCCAUGUUA
## Result 28

## Task Consider the sequence GUAUGGAAACAUACUAUGGUAUCGUGAGAUACCAGUACAGAAAUGUACCCUUGGCAGCUCGCGCAUACAUGAGGAUCACCCAUGU and give its measured apparent Kd.
## Result 18.1

Further cases:
## Task Reported apparent Kd, sequence UCACGAGGCCUGGAUACCAGCGACAUGAGGAUCACCCAUGUAUGAGGAUCAGCCAUGUUAUGCCCUUGGCAGCCACGAAGGUCAU : ____
## Result 14.6

## Task Given the entry GUCAGUAGAACAGAUACCAGUCAAAAGCUGUGAUCUCAUAACAUGAGGAUCACCCAUGUUGACCCUUGGCAGCUGUGGGCGAGGG , report its measured apparent Kd.
## Result 19.6

## Task Value lookup for apparent Kd; key = AUCUCAUAGAGUGAUACCAGACUACAUGAGGAUCACCCAUGUUACAUUUAAAUAUCAUUUGUCCCUUGGCAGCACAUUAAGUACA
## Result 24.3

* * *

System: MS2 coat protein
Protocol description: apparent Kd, MS2 coat protein; higher = weaker binding; RNA-MaP array
Protocol conditions: designed as: OFF switch for flavin mononucleotide; no ligand
Property name: apparent Kd (nM)
Please give a number only; it is taken to be in nM.

## Task I'd like to know its apparent Kd. The sequence in question is ACAAAGACAGGAUAUACAAAUUACAACUAAUCAAGGAAAAGACAUGAGGAUCACCCAUGUAGAAGGGUCAAUAA
## Result 26.9

## Task Form field: reported apparent Kd of GUGUACUUUGAAGGAUAUAACGGCGGCAUUUUCUUAGAAGGUCAAGGGACAUGAGGAUCACCCAUGUUAACAUUGGUUCUAACA
## Result 10.6

## Task Quick one: apparent Kd for GCUAGUUCACAGAAGGCGUCCGUGGGUGGCGCCUUACAUGAGGAUCACCCAUGUCAACCGUGCGACGAGGAUAUGUCAAUCGCA ?
## Result 22.5

New cases:
## Task Can you look up the measured apparent Kd of GAACUGUGAGGAUAUACAUGAGGAUCACCCAUGUUUGUGUUGGCACGCACUCGGGCAAGUAGAAGGCACAGAUG for me?
## Result 44

## Task Query (sequence): UAUGCGUUUUCAGGAUAUGCACACAUGAGGAUCACCCAUGUAGGUCUGCGGCGGCAUCCUCCUUUGCAGAAGGGAAUCGCGCUU ; field requested: apparent Kd
## Result 44.1

## Task Which apparent Kd value is on record for AAUAGCUAAGGAUAUACGUACUCAGAGUGAUAAAUCAAAUAACAUGAGGAUCACCCAUGUAGAAGGAAGAAAUA ?
## Result 30.9

## Task Param item = ACAGGUAGAGGAUAUCGUGAAAGUCACAUGAGGAUCACCCAUGUGGUAAGCAUGUACGCCCGAGAAGGCUAACCGC ; retrieve measured apparent Kd.
## Result 7.57

## Task Give the measured apparent Kd of UAUGUACAUGAGGAUCACCCAUGUUAGGAUAUAUGGCCGCGCUUUAAACACCGUGCACAUAGAAGGAACAUUUG .
## Result 35

## Task Record request: apparent Kd value, item ACCCGACAAGUGAGGAUAUUGAUAAGAGGAGCUUACAAGAAGGCACAUGAGGAUCACCCAUGUAUUAAGUGAAG
## Result 7.97
